Assign IC50 to each entry below.
biological target: human adenosine A2b receptor (Homo sapiens (Human), UniProt P29275); assay: Cellular in vitro reporter gene test for A2b receptor activity (CHO-K1, CRE-luciferase, NECA stimulation); format: cell-based; conditions: recombinant CHO-K1 cell line, CRE-luciferase reporter, antagonism of EC50 concentration of NECA; in some cases means of several determinations, rounded to two significant figures; read-out: A2b receptor IC50
Sequence (P29275 whole entry): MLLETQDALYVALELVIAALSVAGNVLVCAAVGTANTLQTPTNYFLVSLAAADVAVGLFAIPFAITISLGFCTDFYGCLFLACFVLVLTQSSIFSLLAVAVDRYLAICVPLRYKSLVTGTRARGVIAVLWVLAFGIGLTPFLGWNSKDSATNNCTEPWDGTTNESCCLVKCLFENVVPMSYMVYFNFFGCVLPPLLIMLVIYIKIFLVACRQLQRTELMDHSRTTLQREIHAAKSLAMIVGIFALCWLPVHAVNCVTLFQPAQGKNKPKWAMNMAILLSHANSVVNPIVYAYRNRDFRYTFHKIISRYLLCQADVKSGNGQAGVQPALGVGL
Dear colleague, please return just the value in nM, with no unit written.

Query: I'd like to know its IC50. The molecule in question is COC(=O)N=C1NCCN1Cc1sc2c(c1C)c(=O)n(C(C)C)c(=O)n2CCC(F)(F)F
Reply: 3.4

Query: Queued: CCn1c(=O)c2c(C)c(Cn3nc[nH]c3=O)sc2n(CCC(F)(F)F)c1=O
Reply: 8.1

Query: Queued: Cc1c(CN2CCNC2=S)sc2c1c(=O)n(CC(C)C)c(=O)n2CC1CCO1 (racemic) [Example 146]
Reply: 11

Query: Queued: CCn1c(=O)c2c(C)c(CN3CCNC3=O)sc2n(CCCOC)c1=O
Reply: 31

Query: Queued: Cc1c(CN2CCNC2=NC#N)sc2c1c(=O)n(C(C)C)c(=O)n2CC1CCO1 (racemic) [Example 264]
Reply: 3.1

Query: Queued: Cc1c(CN2CCNC2=S)sc2c1c(=O)n(CC(F)F)c(=O)n2CC1CCCO1 (single isomer, unassigned) [Example 163]
Reply: 5.2

Query: Queued: COCCn1c(=O)n(CCC(F)=C(F)F)c(=O)c2c(C)c(CN3CCNC3=O)sc21
Reply: 1.6

Query: Queued: CCCn1c(=O)n(CC)c(=O)c2c(C)c(CN3CCNC3=O)sc21
Reply: 5.6

* * *

target: human adenosine A2b receptor (Homo sapiens (Human)); assay: Cellular in vitro reporter gene test for A2b receptor activity (CHO-K1, CRE-luciferase, NECA stimulation); format: cell-based; conditions: recombinant CHO-K1 cell line, CRE-luciferase reporter, antagonism of EC50 concentration of NECA; in some cases means of several determinations, rounded to two significant figures; read-out: A2b receptor IC50
pIC50: −log10 of the molar value.
Record TRUE whenever pIC50 is at 8 or higher; record FALSE when lower.

Query: Textbook exercise: given the entry CCOCCn1c(=O)c2c(C)c(CN3CCNC3=NC#N)sc2n(CCCF)c1=O [Example 453] , state whether its pIC50 is greater than or equal to 8.
Reply: FALSE

Query: Queued: COCCn1c(=O)n(CC(C)C)c(=O)c2c(C)c(CN3CCNC3=S)sc21 [Example 39]
Reply: TRUE

Query: Queued: Cc1c(CN2CCNC2=S)sc2c1c(=O)n(C(C)C)c(=O)n2CCCF [Example 298]
Reply: TRUE

Query: Queued: COC(C)Cn1c(=O)c2c(C)c(CN3CCNC3=O)sc2n(CCC(F)(F)F)c1=O (single isomer, unassigned) [Example 413]
Reply: TRUE

Query: Queued: CCn1c(=O)c2c(C)c(CN3CCNC3=NC(=O)OC)sc2n(CCC(F)(F)F)c1=O [Example 370]
Reply: TRUE

Query: Queued: CCOCCn1c(=O)n(CC(F)F)c(=O)c2c(C)c(CN3CCNC3=O)sc21 [Example 215]
Reply: FALSE

Query: Queued: CCn1c(=O)c2c(C)c(CN3CCNC3=S)sc2n(CCS(C)(=O)=O)c1=O [Example 295]
Reply: FALSE

Query: Queued: Cc1c(CN2CCNC(=O)C2=O)sc2c1c(=O)n(CC(F)(F)F)c(=O)n2CC1CCO1 (racemic) [Example 123]
Reply: FALSE

Query: Queued: COCCn1c(=O)c2c(C)c(CN3CCNC3=NC#N)sc2n(CC2CCO2)c1=O (single isomer, unassigned) [Example 365]
Reply: FALSE

Query: Queued: COCCn1c(=O)n(CC(F)(F)F)c(=O)c2c(C)c(Cn3cc[nH]c3=O)sc21 [Example 340]
Reply: FALSE

Query: Queued: CCn1c(=O)c2c(C)c(CN3CCNC3=O)sc2n(CCN(C)C)c1=O [Example 83]
Reply: FALSE

Query: Queued: Cc1c(CN2CCNC(=O)C2=O)sc2c1c(=O)n(CC(C)C)c(=O)n2CCCF [Example 121]
Reply: FALSE

Query: Queued: COCCn1c(=O)n(CC(C)(C)OC)c(=O)c2c(C)c(CN3CCNC3=O)sc21 [Example 238]
Reply: FALSE

Query: Queued: CCn1c(=O)c2c(C)c(CN3CCNC3=O)sc2n(CC2CCO2)c1=O (single isomer, unassigned; enantiomer 2) [Example 67]
Reply: FALSE

Query: Queued: CCn1c(=O)c2c(C)c(CN3CCNC3=S)sc2n(CC2CCCCO2)c1=O (single isomer, unassigned) [Example 141]
Reply: FALSE

Query: Queued: COCCn1c(=O)c2c(C)c(CN3CCNC3=O)sc2n(CCC(F)(F)F)c1=O [Example 229]
Reply: TRUE

Query: Queued: CCn1c(=O)c2c(C)c(CN3CCNC3=O)sc2n(CC2CC2(F)F)c1=O (racemic) [Example 54]
Reply: TRUE

Query: Queued: COCCCn1c(=O)c2c(C)c(CN3CCNC3=O)sc2n(CCOC)c1=O [Example 328]
Reply: FALSE

Query: Queued: COCCn1c(=O)c2c(C)c(CN3CCNC(=O)C3=O)sc2n(CCCF)c1=O [Example 277]
Reply: FALSE

Query: Queued: CCn1c(=O)c2c(C)c(CN3CCN(C(C)C)C3=S)sc2n(CC2CCCO2)c1=O (racemic) [Example 175]
Reply: FALSE

Query: Queued: COCCn1c(=O)n(CC(C)C)c(=O)c2c(C)c(CN3CCN(C=O)C3=S)sc21 [Example 46]
Reply: FALSE

Query: Queued: COCCn1c(=O)n(C(C)C)c(=O)c2c(C)c(CN3CCNC3=NC(=O)OC)sc21 [Example 378]
Reply: TRUE
